These entries and their values trace back to patent US9073955B2.

assay_system: Human TRPA1 (Homo sapiens, UniProt O75762)
Sequence (O75762 whole entry): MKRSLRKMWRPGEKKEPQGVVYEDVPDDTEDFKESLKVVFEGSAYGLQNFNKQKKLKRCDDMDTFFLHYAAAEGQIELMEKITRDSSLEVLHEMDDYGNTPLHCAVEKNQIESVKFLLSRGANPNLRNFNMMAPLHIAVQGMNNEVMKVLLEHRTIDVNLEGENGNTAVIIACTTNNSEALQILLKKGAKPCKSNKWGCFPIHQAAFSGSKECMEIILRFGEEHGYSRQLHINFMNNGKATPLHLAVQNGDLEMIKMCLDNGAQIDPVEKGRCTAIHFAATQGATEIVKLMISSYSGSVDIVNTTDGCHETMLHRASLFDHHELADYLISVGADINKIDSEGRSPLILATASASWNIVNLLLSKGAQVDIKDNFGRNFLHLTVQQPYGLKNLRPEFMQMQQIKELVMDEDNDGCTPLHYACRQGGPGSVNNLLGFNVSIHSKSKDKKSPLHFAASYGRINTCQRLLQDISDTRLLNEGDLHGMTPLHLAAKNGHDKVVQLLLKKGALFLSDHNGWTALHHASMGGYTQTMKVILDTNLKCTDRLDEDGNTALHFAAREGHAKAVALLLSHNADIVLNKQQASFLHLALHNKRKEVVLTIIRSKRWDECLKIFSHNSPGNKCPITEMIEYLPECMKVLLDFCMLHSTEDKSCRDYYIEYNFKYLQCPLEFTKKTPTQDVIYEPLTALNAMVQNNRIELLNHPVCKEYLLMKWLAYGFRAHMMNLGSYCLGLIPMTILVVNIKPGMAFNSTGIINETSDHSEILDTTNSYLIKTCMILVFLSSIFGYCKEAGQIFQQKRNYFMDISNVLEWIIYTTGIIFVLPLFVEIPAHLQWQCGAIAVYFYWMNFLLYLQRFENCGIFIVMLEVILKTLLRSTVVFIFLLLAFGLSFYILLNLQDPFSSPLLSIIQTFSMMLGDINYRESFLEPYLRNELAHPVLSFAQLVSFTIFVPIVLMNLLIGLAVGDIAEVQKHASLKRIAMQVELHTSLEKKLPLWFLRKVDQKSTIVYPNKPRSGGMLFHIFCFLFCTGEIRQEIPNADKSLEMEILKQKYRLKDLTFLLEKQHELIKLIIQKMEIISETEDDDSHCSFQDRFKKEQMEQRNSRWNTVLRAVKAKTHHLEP
procedure_details: 45Calcium uptake assay: inhibition of AITC induced cellular uptake of radioactive calcium
measurement_context: human TRPA1 expressing CHO cells, AITC 30 μM
Description: The illustrative examples of the present invention were screened for TRPA1 activity according to a modified procedure described in (a) Tóth, A. et al. Life Sciences, 2003, 73, 487-498. […] Radioactivity in the lysate was measured in a Packard TopCount after addition of liquid scintillant. […] IC50 values can be calculated from concentration response curve by nonlinear regression analysis using GraphPad PRISM software.
pIC50: −log10 of the molar value. Where a name gives a salt, the structure may show the parent alone.
observable: pIC50

Cn1nc2c(c1CC(=O)N=c1scc(-c3ccc(F)c(C(F)(F)F)c3F)n1COP(=O)([O-])[O-])c(=O)n(C)c(=O)n2C.[Na+].[Na+] [Example 29, phosphate] | < 6.30
Cn1c(=O)c2c(CC(=O)N=c3scc(-c4ccc(C(F)(F)F)c(F)c4F)n3COP(=O)(O)O)nsc2n(C)c1=O [Example 32, phosphate] | < 6.30
CC[C@H](C)[C@H](N)C(=O)OCn1c(-c2ccc(OC(F)(F)F)c(Cl)c2)cs/c1=N\C(=O)Cc1c(C)oc2c1c(=O)n(C)c(=O)n2C [Example 22, hydrochloride] | 6.30 to 7.00

// pIC50 value for Cc1oc2c(c1CC(=O)/N=c1\scc(-c3ccc(OC(F)(F)F)c(Cl)c3)n1COC(=O)CN)c(=O)n(C)c(=O)n2C.Cl [Example 20, hydrochloride] : > 7.00

// pIC50 value for `Cn1nc2c(c1CC(=O)/N=c1\scc(-c3ccc(F)c(C(F)(F)F)c3F)n1COP(=O)(O)O)c(=O)n(C)c(=O)n2C` : < 6.30

// pIC50 value for CC[C@H](C)[C@H](N)C(=O)OCn1c(-c2ccc(C(F)(F)F)c(F)c2)cs/c1=N\C(=O)Cc1csc2c1c(=O)n(C)c(=O)n2C.Cl [Example 6, hydrochloride] : 6.30 to 7.00
